mortality for assorted compounds
Tested on: Spodoptera exigua
Assay: Insecticidal activity against Spodoptera exigua second-instar larvae feeded on 400 ppm compound treated lepidopteran diet assessed as insect mortality measured 5 days post compound treatment under green house conditions
Format: functional
Conditions: at 400 ppm
VALUE_KIND: mortality (%)

| COMPOUND | TEST_SYSTEM | UNIT_SPEC | RESULT_MODIFIER | OBS_VALUE |
| --- | --- | --- | --- | --- |
| Cc1sc(-c2nc(-c3c(F)cccc3Cl)nn2C)c(C)c1-c1ccc(C(F)(F)F)cc1 | Spodoptera exigua | % | = | 90 |
| Cc1cc(C2=CCC(OC(=O)C(F)(F)Br)CC2)sc1-c1nc(-c2c(F)cccc2Cl)nn1C (configuration not stated) | Spodoptera exigua | % | < | 50 |
| Cc1cc(-c2ccc(OC(F)(F)C(F)Cl)cc2)sc1-c1nc(-c2c(F)cccc2Cl)nn1C (configuration not stated) | Spodoptera exigua | % | = | 60 |
| Cn1nc(-c2c(F)cccc2Cl)nc1-c1sc(-c2ccc(C(C)(C)C)cc2)c(Cl)c1Cl | Spodoptera exigua | % | = | 50 |
| Cc1cc(-c2ccncc2)sc1-c1nc(-c2c(F)cccc2Cl)nn1C | Spodoptera exigua | % | = | 70 |
| CCOc1ccc(-c2cc(Cl)c(-c3nc(-c4c(F)cccc4Cl)nn3C)s2)cc1 | Spodoptera exigua | % | = | 80 |
| Cc1sc(-c2nc(-c3c(F)cccc3Cl)nn2C)c(C)c1-c1ccc(OC(F)(F)C(F)Cl)cc1 (configuration not stated) | Spodoptera exigua | % | = | 80 |
| CCOc1ccc(-c2sc(-c3nc(-c4c(F)cccc4Cl)nn3C)c(C)c2C)cc1 | Spodoptera exigua | % | = | 90 |
| Cc1cc(-c2ccc(Cl)c(F)c2)sc1-c1nc(-c2c(F)cccc2Cl)nn1C | Spodoptera exigua | % | = | 90 |
| Cc1ccc(-c2sc(-c3nc(-c4c(F)cccc4Cl)nn3C)cc2Br)cc1 | Spodoptera exigua | % | < | 50 |
| Cn1nc(-c2c(F)cccc2Cl)nc1-c1cc(Br)c(-c2cccc(OC(F)(F)F)c2)s1 | Spodoptera exigua | % | < | 50 |
| Cc1cc(-c2ccc(OC(F)(F)C(F)C(F)(F)F)cc2)sc1-c1nc(-c2c(F)cccc2Cl)nn1C (configuration not stated) | Spodoptera exigua | % | = | 80 |
| Cc1cc(C2(O)CCC(=O)CC2)sc1-c1nc(-c2c(F)cccc2Cl)nn1C | Spodoptera exigua | % | < | 50 |
| Cc1c(-c2ccc(OC(F)(F)F)cc2)csc1-c1nc(-c2c(F)cccc2Cl)nn1C | Spodoptera exigua | % | = | 90 |
| Cc1c(-c2ccc(OC(F)(F)C(F)Cl)cc2)csc1-c1nc(-c2c(F)cccc2Cl)nn1C (configuration not stated) | Spodoptera exigua | % | = | 80 |
| Cn1nc(-c2c(F)cccc2Cl)nc1-c1sc(-c2ccc(C(F)(F)F)cc2)c(Br)c1Cl | Spodoptera exigua | % | = | 90 |
| Cc1cc(C2CCC(OC(F)(F)C(F)Cl)CC2)sc1-c1nc(-c2c(F)cccc2Cl)nn1C (configuration not stated) | Spodoptera exigua | % | = | 90 |
| Cn1nc(-c2c(F)cccc2Cl)nc1-c1sc(-c2ccc(OC(F)(F)F)cc2)c(Cl)c1Cl | Spodoptera exigua | % | = | 70 |
| CCOc1ccc(-c2sc(-c3nc(-c4c(F)cccc4Cl)nn3C)c(Cl)c2Br)cc1 | Spodoptera exigua | % | = | 90 |
| Cc1c(-c2ccc(C(C)C)cc2)csc1-c1nc(-c2c(F)cccc2Cl)nn1C | Spodoptera exigua | % | = | 80 |
| CCOc1ccc(-c2csc(-c3nc(-c4c(F)cccc4Cl)nn3C)c2C)cc1 | Spodoptera exigua | % | = | 80 |
| Cc1sc(-c2nc(-c3c(F)cccc3Cl)nn2C)c(C)c1-c1ccc(OC(F)(F)C(F)Br)cc1 (configuration not stated) | Spodoptera exigua | % | = | 80 |

---

Entries and their mortality values follow.
System: Spodoptera exigua
Experiment: Insecticidal activity against Spodoptera exigua second-instar larvae feeded on 400 ppm compound treated lepidopteran diet assessed as insect mortality measured 5 days post compound treatment under green house conditions
Format: functional
Details: at 400 ppm

| COMPOUND | RESULT_MODIFIER | mortality [%] |
| --- | --- | --- |
| Cc1cc(-c2ccc(Cl)cc2F)sc1-c1nc(-c2c(F)cccc2Cl)nn1C | = | 70 |
| Cc1cc(-c2ccc(F)c(F)c2)sc1-c1nc(-c2c(F)cccc2Cl)nn1C | = | 90 |
| Cn1nc(-c2c(F)cccc2Cl)nc1-c1sc(-c2ccc(OC(F)(F)C(F)Cl)cc2)cc1Cl (centres undefined) | = | 60 |
| Cc1sc(-c2nc(-c3c(F)cccc3Cl)nn2C)c(C)c1-c1ccc(C(C)C)cc1 | = | 80 |
| Cc1c(-c2ccc(OC(F)(F)C(F)Cl)cc2)sc(-c2nc(-c3c(F)cccc3Cl)nn2C)c1C (centres undefined) | = | 60 |
| CCOc1ccc(-c2cc(C)c(-c3nc(-c4c(F)cccc4Cl)nn3C)s2)cc1 | = | 80 |
| Cc1c(-c2ccc(OC(F)=C(Cl)Cl)cc2)csc1-c1nc(-c2c(F)cccc2Cl)nn1C | = | 80 |
| Cc1c(-c2ccc(OC(F)(F)F)cc2)sc(-c2nc(-c3c(F)cccc3Cl)nn2C)c1C | = | 80 |
| Cn1nc(-c2c(F)cccc2Cl)nc1-c1cc(Br)c(-c2cccc(C(F)(F)F)c2)s1 | < | 50 |
| Cc1cc(-c2ccc(C(F)(F)F)cc2)sc1-c1nc(-c2c(F)cccc2Cl)nn1C | = | 90 |
| CCOc1ccc(-c2c(C)sc(-c3nc(-c4c(F)cccc4Cl)nn3C)c2C)cc1 | = | 80 |
| Cc1cc(Oc2ncc(C(F)(F)F)cc2Cl)sc1-c1nc(-c2c(F)cccc2Cl)nn1C | = | 70 |
| CCOc1ccc(-c2ccc(-c3nc(-c4c(F)cccc4Cl)nn3C)s2)cc1 | = | 80 |
| Cc1cc(-c2cc(Br)cc(Br)c2)sc1-c1nc(-c2c(F)cccc2Cl)nn1C | = | 60 |
| Cc1cc(C2CCC(OC(=O)C(F)(F)Br)CC2)sc1-c1nc(-c2c(F)cccc2Cl)nn1C (centres undefined) | < | 50 |
| Cc1cc(-c2ccc(Cl)c(Cl)c2)sc1-c1nc(-c2c(F)cccc2Cl)nn1C | = | 70 |
| Cn1nc(-c2c(F)cccc2Cl)nc1-c1sc(-c2ccc(OC(F)(F)F)cc2)c(Br)c1Cl | = | 90 |
| Cc1c(-c2nc(-c3c(F)cccc3Cl)nn2C)sc(Br)c1-c1ccc(OC(F)(F)C(F)Br)cc1 (centres undefined) | = | 80 |
| Cc1ccc(-c2sc(-c3nc(-c4c(F)cccc4Cl)nn3C)c(Cl)c2Cl)cc1 | = | 70 |

---

Tested on: Tetranychus urticae
Assay: Insecticidal activity against female Tetranychus urticae (two-spotted spider mite) infested cotton leaf disks followed by 2.5 ppm compound spraying after oviposit assessed as insect mortality measured after 6 days post compound application under green house conditions
Type: functional
Settings: foliar, 144 h
A collection of compounds and their measured mortality at 2.5 ppm

| COMPOUND | RESULT_MODIFIER | mortality at 2.5 ppm (%) |
| --- | --- | --- |
| Cn1nc(-c2c(F)cccc2Cl)nc1-c1cc(Br)c(-c2ccc(OC(F)(F)F)cc2)s1 | = | 90 |
| Cn1nc(-c2c(F)cccc2Cl)nc1-c1ccc(-c2ccc(OC(F)(F)F)cc2)s1 | = | 90 |
| Cn1nc(-c2c(F)cccc2Cl)nc1-c1sc(-c2ccc(C(F)(F)F)cc2)c(Br)c1Cl | = | 90 |
| COCCOc1cccc(-c2cc(C)c(-c3nc(-c4c(F)cccc4Cl)nn3C)s2)c1 | < | 50 |
| Cc1ccc(-c2cc(Cl)c(-c3nc(-c4c(F)cccc4Cl)nn3C)s2)cc1 | = | 90 |
| Cc1cc(-c2ccc(OC(F)(F)C(F)C(F)(F)F)cc2)sc1-c1nc(-c2c(F)cccc2Cl)nn1C (centres undefined) | = | 90 |
| Cn1nc(-c2c(F)cccc2Cl)nc1-c1sc(-c2ccc(Br)cc2)c(Cl)c1Cl | = | 90 |
| Cn1nc(-c2c(F)cccc2Cl)nc1-c1ccc(-c2ccc(C(F)(F)F)cc2)s1 | = | 80 |
| Cn1nc(-c2c(F)cccc2F)nc1-c1sc(-c2ccc(C(F)(F)F)cc2)cc1Cl | = | 90 |
| CCOc1cccc(-c2cc(C)c(-c3nc(-c4c(F)cccc4Cl)nn3C)s2)c1 | = | 70 |
| Cn1nc(-c2c(F)cccc2Cl)nc1-c1sc(-c2ccc(C(F)(F)F)cc2)cc1Cl | = | 90 |
| Cc1c(-c2ccc(OC(F)(F)C(F)Cl)cc2)sc(-c2nc(-c3c(F)cccc3Cl)nn2C)c1C (centres undefined) | = | 80 |
| Cc1c(-c2ccc(C(F)(F)F)cc2)csc1-c1nc(-c2c(F)cccc2Cl)nn1C | = | 60 |
| Cc1cc(C2=CCC(OC(F)(F)C(F)Cl)CC2)sc1-c1nc(-c2c(F)cccc2Cl)nn1C (centres undefined) | = | 90 |
| Cc1cc(C2CCC(OC(F)(F)C(F)Cl)CC2)sc1-c1nc(-c2c(F)cccc2Cl)nn1C (centres undefined) | = | 80 |
| Cc1cc(-c2ccc(Cl)cc2F)sc1-c1nc(-c2c(F)cccc2Cl)nn1C | = | 90 |
| CCOc1ccc(-c2c(C)sc(-c3nc(-c4c(F)cccc4Cl)nn3C)c2C)cc1 | < | 50 |
| Cc1c(-c2ccc(OC(F)(F)C(F)C(F)(F)F)cc2)csc1-c1nc(-c2c(F)cccc2Cl)nn1C (centres undefined) | = | 90 |
| Cn1nc(-c2c(F)cccc2Cl)nc1-c1sc(-c2ccc(OC(F)(F)F)cc2)cc1Cl | = | 90 |
| Cc1sc(-c2nc(-c3c(F)cccc3Cl)nn2C)c(C)c1-c1ccc(Cl)cc1 | = | 80 |
| Cn1nc(-c2c(F)cccc2Cl)nc1-c1sc(-c2ccc(OC(F)(F)C(F)Br)cc2)cc1Cl (centres undefined) | = | 90 |
| Cc1c(-c2ccc(OC(F)(F)C(Cl)Cl)cc2)csc1-c1nc(-c2c(F)cccc2Cl)nn1C | = | 90 |
| Cn1nc(-c2c(F)cccc2Cl)nc1-c1sc(-c2ccc(OC(F)(F)C(F)Cl)cc2)cc1Cl (centres undefined) | = | 90 |
| Cc1cc(-c2ccc(Cl)c(F)c2)sc1-c1nc(-c2c(F)cccc2Cl)nn1C | = | 90 |
| Cn1nc(-c2c(F)cccc2Cl)nc1-c1sc(-c2ccc(C(C)(C)C)cc2)c(Cl)c1Cl | = | 60 |
| Cc1cc(C2=CCC(OC(=O)C(F)(F)Br)CC2)sc1-c1nc(-c2c(F)cccc2Cl)nn1C (centres undefined) | = | 70 |
| Cc1cc(-c2ccc(OC(F)(F)F)cc2)sc1-c1nc(-c2c(F)cccc2Cl)nn1C | = | 90 |
| Cc1cc(-c2ccc(OC(F)(F)C(F)Br)cc2)sc1-c1nc(-c2c(F)cccc2Cl)nn1C (centres undefined) | = | 90 |
| Cc1c(-c2nc(-c3c(F)cccc3Cl)nn2C)sc(Br)c1-c1ccc(OC(F)(F)F)cc1 | = | 50 |
| Cc1sc(-c2nc(-c3c(F)cccc3Cl)nn2C)c(C)c1-c1ccc(C(C)C)cc1 | = | 90 |
| Cn1nc(-c2c(F)cccc2Cl)nc1-c1sc(-c2ccc(OC(F)(F)F)cc2)c(Br)c1Cl | = | 80 |
| Cc1cc(-c2ccc3c(c2)COC3)sc1-c1nc(-c2c(F)cccc2Cl)nn1C | = | 80 |
| Cc1c(-c2ccc(OC(F)(F)C(F)Br)cc2)sc(-c2nc(-c3c(F)cccc3Cl)nn2C)c1C (centres undefined) | = | 90 |
| Cc1cc(-c2cccc(OC(F)(F)C(F)Cl)c2)sc1-c1nc(-c2c(F)cccc2Cl)nn1C (centres undefined) | = | 90 |
| Cc1cc(-c2ccc(OC(C)C)cc2)sc1-c1nc(-c2c(F)cccc2Cl)nn1C | = | 60 |
| Cc1c(-c2ccc(OC(F)=C(Cl)Cl)cc2)csc1-c1nc(-c2c(F)cccc2Cl)nn1C | = | 90 |
| Cc1cc(-c2ccc(OC(F)(F)C(Cl)Cl)cc2)sc1-c1nc(-c2c(F)cccc2Cl)nn1C | = | 90 |
| Cc1cc(-c2ccc(Cl)cc2)sc1-c1nc(-c2c(F)cccc2Cl)nn1C | = | 90 |
| CCOc1ccc(-c2csc(-c3nc(-c4c(F)cccc4Cl)nn3C)c2C)cc1 | = | 90 |
